System: Plasmodium berghei
protocol.text: Screen against P. berghei liver stage (PbLuc), transformed with Luciferase, at 10uM
Format: functional, HepG2
condition.set: tested at 10 uM
In all, about 69,000 compounds went through this assay and about 8,600 (12%) showed an effect of 50% or more. The list comes from a sample in which strong results are over-represented; it also holds close analogues and randomly drawn compounds.
Define the label as criterion met when INHIBITION is strictly less than 30% and as criterion not met in all remaining cases.

COc1ccc(CN(C)CC2(O)CCNC2)cc1 (stereo unspecified) = criterion met
O=C(C1CCCN(Cc2cccc(F)c2)C1)N1CCc2sccc2C1 (stereo unspecified) = criterion met
c1cn(CCc2c[nH]cn2)c(-c2cc(CN3CCCC3)cs2)n1 = criterion not met

Here's an entry: `COCCn1ccc(NC(=O)Nc2ccc(C(N)=O)c(F)c2)n1` . Is its INHIBITION below 30%?
criterion met

Same for `Cc1cc(CN(CC(N)=O)CC(C)C)on1`
criterion not met

Same for `CN1CCC(c2cccc(-c3ccc(C(=O)O)cc3)n2)CC1`
criterion met

Same for COc1ccc(C(C)N2CCC(NS(C)(=O)=O)CC2)cc1Cl (stereo unspecified)
criterion not met

----------
Tested on: Plasmodium berghei
protocol.text: Screen against P. berghei liver stage (PbLuc), transformed with Luciferase, at 10uM
Assay type: functional, HepG2
condition.set: tested at 10 uM
Hit rate of the full screen: of about 69,000 compounds, about 8,600 (12%) showed an effect of 50% or more. This is one part of a sample in which strong results are shown more often than they occur.
Define the label as yes when INHIBITION is strictly less than 10% and as no in all remaining cases.

Solved entries (count: 2):
Cc1cc(NC(=O)CN(CC(C)O)c2ccccc2)on1 (stereo unspecified) = no
Cc1nc(CC(=O)N2CCC(c3ccn4nccc4n3)CC2)cs1 = no

Here's an entry: `COCCNC(=O)c1ccc2c(=O)n3c(nc2c1)CCN(C)CC3` . Is its INHIBITION below 10%?
yes

Same for `Cn1c(CN2CCCc3cc(F)cc(F)c32)cc(=O)n(C)c1=O`
no

Same for `Cc1ncsc1CCC(=O)N(C)Cc1nc2ccccc2n1C`
no

Same for CCN(CC1CCOC1)C(=O)c1cc(F)ccc1N1CCN(C)CC1 (stereo unspecified)
yes

----------
System: Plasmodium berghei
protocol.text: Screen against P. berghei liver stage (PbLuc), transformed with Luciferase, at 10uM
Assay type: functional, HepG2
condition.set: tested at 10 uM
In all, about 69,000 compounds went through this assay and about 8,600 (12%) showed an effect of 50% or more. The list comes from a sample in which strong results are over-represented; it also holds close analogues and randomly drawn compounds.
parameter.measured: INHIBITION (%)
One number for each entry, in %.

Record excerpt, results attached:
OCCN(Cc1ccccc1)Cc1nc(-c2ccc3c(c2)OCO3)no1 = 35.1
CCCc1noc(-c2ccc(-n3ncc(C(=O)O)c3C)nc2)n1 = 7.92
NC(=O)CN1CCC(NC(=O)COCCOc2ccccc2)CC1 = 31.6

Give measured INHIBITION for every item shown.
1. CCOc1ccccc1C(CC(=O)Nc1ccccn1)NC(C)=O (centres undefined)
2. CC1(C(=O)NC2CCCC2)CCCN(c2cnccn2)C1 (centres undefined)
3. CN1CC2(CCCN(c3nc(N)nc4c3CCCC4)C2)OC1=O (centres undefined)
4. O=C(CCc1ccccc1)N1CCCC(c2n[nH]c3nccnc23)C1 (centres undefined)
5. C[C@H]1C(=O)NC[C@H]2CN(CCc3ccccc3)C[C@H]21
6. Cc1ccc(-c2cc(CN(CC(N)=O)CC(C)C)on2)cc1

-10.45
-4.51
45.6
32.8
-23.3
57.8

Source: ChEMBL document CHEMBL4513216
